Assay read-out log10 of IC50 on Lysine-specific histone demethylase 1A (Homo sapiens); records merged from the literature.
measurement.name: log10 of IC50 (log10 of the value in nM)

In [3]: df
Out[3]:
                                    molecule  measurement_name  measured_value
 0  COc1ccc(-c2cnc(N3CCC(NCc4ccc(/C=C/C(=O)NO)cc4)CC3)c(C#N)c2-c2cnc(C#N)nc2)cc1O     log10 of IC50            1.23
 1  CC(C)(O)Cn1ncc2cc(-c3c(-c4ccc(C#N)c(F)c4)nc(N4CCC(N)CC4)c4c3CNC4=O)c(F)cc21     log10 of IC50           -0.14
 2  CC(C)n1cc([C@H]2C[C@@H]2NCC2CCN(CCCc3ccc(C(=O)Nc4ccccc4N)cc3)CC2)cn1     log10 of IC50            2.14
 3  Cn1ncc2cc(-c3cc(C(N)=O)c(N4CCC(N)CC4)nc3-c3ccc(C#N)c(F)c3)ccc21     log10 of IC50            0.18
 4  Nc1ccccc1NC(=O)c1ccc(Cn2cc(CN[C@@H]3C[C@H]3c3ccc(F)cc3)nn2)cc1     log10 of IC50            1.84
 5  COc1ccc(-c2cnc(N3CCC(NCc4ccc5cc(C(=O)NO)sc5c4)CC3)c(C#N)c2-c2ccc(C#N)c(F)c2)cc1O     log10 of IC50            0.05
 6  COc1ccc(-c2ccc(CN3CC[C@H](NCc4ccc(/C=C/C(=O)NO)cc4)C3)cc2-c2ccc(C#N)c(F)c2)cc1O     log10 of IC50            0.35
 7  CC(C)(O)COc1ccc(-c2cnc(N3CCC(NCc4ccc(CCC(=O)NO)nc4)CC3)c(C#N)c2-c2ccc(C#N)c(F)c2)cc1O     log10 of IC50            0.20
 8  COc1cc(-c2ccc(C(=O)N3CC[C@H](NCc4ccc(/C=C/C(=O)NO)cc4)C3)cc2-c2ccc(C#N)c(F)c2)ccc1O     log10 of IC50            1.33
 9  COc1ccc(-c2cnc(N3CCC(NCc4ccc(C#CC(=O)NO)cc4)CC3)c(C#N)c2-c2ccc(C#N)c(F)c2)cc1O     log10 of IC50            0.62
10  Nc1ccccc1NC(=O)c1ccc(CCCN2CCC(CN[C@@H]3C[C@H]3c3cnn(-c4ccccc4)c3)CC2)cc1     log10 of IC50            1.00
11  COc1ccc(-c2c(C#N)cc(N3CCC(N)CC3)nc2-c2ccc(C#N)c(F)c2)cc1F     log10 of IC50            0.32
12  CC(C)(O)Cn1nnc2cc(-c3cnc(N4CCC(NCc5ccc(/C=C/C(=O)NO)nc5)CC4)c(C#N)c3-c3ccc(C#N)c(F)c3)ccc21     log10 of IC50           -0.46
13  O=C(NO)c1ccc(/C=C/C(=O)N2CC(CN[C@@H]3C[C@H]3c3ccc(F)cc3)C2)cc1     log10 of IC50            1.49
14  Cn1cc(-c2ccc([C@@H]3C[C@H]3NCC3CCN(Cc4ccc(C(=O)Nc5ccccc5N)cc4)CC3)cc2)ccc1=O     log10 of IC50            0.78
15  Cn1ncc2cc(-c3cc(C(N)=O)c(N4CCCNCC4)nc3-c3ccc(C#N)c(F)c3)ccc21     log10 of IC50            0.46
16  N#Cc1ccc(-c2c(-c3ccc(F)c(O)c3)cnc(N3CCC(NCc4ccc(/C=C/C(=O)NO)cc4)CC3)c2C#N)cc1F     log10 of IC50            0.03
17  COc1ccc(-c2cnc(N3CCC(NCc4ccc(/C=C/C(=O)NO)cc4)C(C)C3)c(C#N)c2-c2ccc(C#N)c(F)c2)cc1O (stereo not drawn)     log10 of IC50            0.39
18  Cc1noc2cc(-c3c(C#N)cc(N4CCC(N)CC4)nc3-c3ccc(C#N)c(F)c3)c(F)cc12     log10 of IC50           -0.47
19  COc1ccc(-c2cnc(N3CCC(NCc4ccc(/C=C/C(=O)NO)cc4Cl)CC3)c(C#N)c2-c2ccc(C#N)c(F)c2)cc1O     log10 of IC50            0.40
20  Cn1ncc2cc(-c3c(C#N)cc(N4CCC(N)CC4)nc3-c3ccc(C#N)c(F)c3)ccc21     log10 of IC50           -0.33
21  CC(C)(O)C(F)(F)c1ccc(-c2c(C#N)cc(N3CCC(N)CC3)nc2-c2ccc(C#N)c(F)c2)c(F)c1     log10 of IC50            0.34
22  CC(C)(O)Cn1nnc2cc(-c3cnc(N4CCC(NCc5ccc(/C=C/C(=O)NO)cc5)CC4)c(C#N)c3-c3ccc(C#N)c(F)c3)c(F)c(F)c21     log10 of IC50           -1.70
23  O=C(NO)c1ccc(CCCN2CCC(CN[C@H]3C[C@@H]3c3cnn(-c4ccccc4)c3)CC2)cc1     log10 of IC50            0.70
